- protocolSummary: yeast display, Sf9 membrane polyspecificity reagent, FACS + sequencing; frameworks hold sequencing errors
measuredMetric: polyreactivity (PSR sort gate)

QVQLVESGGGLVQAGGSLRLSCAASGSIFGDYVMGWYRQAPGKERELVAAINRGGSTYYADSVKARFTISRDNAKNTVYLQMNSLKPEDTAVYYCAAGYPSWYYGYPYDSWGQGTQVTVSS    low polyreactivity
QVQLVESGGGLLQEGGSLRLSCAASGRTFYYYTMGWYRQAPGIERELVAAITHGGSTYYADSVKGRFTISRDNAKNTVYLQMNSLTPEDTAVYYCNAVYHYPYEYWGHGTQVTVSS    high polyreactivity
QVQLVESGGGLVQAGGSLRLSCAASGRIFKYYGMGWYRQAPGKERELVAAITRGDSTNYADSVKGRFTISRDNAKNTVYLQMNSLKPEDTAVYYCNVGTRRGYDYWGQGTQVTVSS    high polyreactivity
QVQLVESGGGLFQAGGSLRLSCAASGFIFFPYTMGWYRQAPGKERELVAAITNGGSTSYADSVKGRFTISRDNAKNTVYLQMNSLKPEDTAVYYCAADLGRNLLHTYYYWGQGTQVTVSS    low polyreactivity
QVQLVESGGGLVQAGGSLRFSCAASGSTFFGNTMGWYRQAPGKERELVAAISRRGGSTYYADSVKGRFTISRDNAKNTVYLQMNSLKPEDTAVYYCAKYYHSGGYTPGKYDYWGQGTQVTVSS    high polyreactivity
QVQLVESGGGLVQAGGSLRLRCAASGRTFARYAMGWYRQAPGKERELVAAISWSGGSTYYADSVKARFTISRDNAKNTVYLQMNSLKPVDTAVYYCAARRPTSPRRYESWGQGTQVTVSS    high polyreactivity
QVQLQESGGGLVQAGGSLRLSCAASGTISYAPHMGWYRQAPGTDSELVAGITIGGTTYYADSVKGRFTISRDNAKNTVYLQMNSLSPGDTAVYYCAAHSEQYTPFYYWGQGTQVTVSS    low polyreactivity
QVQLVESGGGLVQAGGSLRISCAASGFTLSYYAMGWYRQAPGKERELVASISAIGGITYYADSVKGRFTISRDNAKNTVYLQMNSLKPEDTAVYYCARQGRRYRRFDSWGQGTQVTVSS    high polyreactivity
QVQLVESGGGLVQAGGSLRLSCAASGRTFYNYAMGWYRQAPGKEREFVAAITFRTSSTYYADSVKGRFTISRDNAKNTVYLQMNSLKQEDTAVYYCNADRYWGYDYWGQGTQVTVSS    high polyreactivity
QVQLVESGGGLVQAGGSLRLSCAASGSTFYYNAMGWYRQAPGKERELVAAITFTGGSTYADSVKGRFTISRDNAKNTVYLQMNSLKPEDTAVFYCAATIQGHDYLGTGYDYWGQGTQVTVSS    low polyreactivity

Task: Endpoint output: polyreactivity (PSR sort gate) of "QVQLEESGGGLVQAGGSLRLSCAASGSTFYLYDMGWYRQAPGKERELVATITSATSTTYADSVKGRFTISRDNATNTVYLQMNSLNPEHTAVYYCNATDVGIITVGYGHGGYYWGQGTQVTVSS" . Value?
Result: low polyreactivity
